Ref: patent US20150086555A1

Answer each item with its documented Trimeric HA Binding: RLU.
# SYSTEM TESTED: recombinant soluble homotrimeric HA of A/Indonesia/5/05 (H5N1) (Influenza A virus A/Indonesia/5/2005(H5N1))
# TEST METHOD NOTES: trimeric HA microarray, transfection supernatant set 2
# RUN PARAMETERS: remark: other sources report otherwise
Form entry: value (RLU) — number only.

May I ask what Trimeric HA Binding: RLU has been recorded for TCN-504 (3251_K17) (antibody, V domains shown) VH: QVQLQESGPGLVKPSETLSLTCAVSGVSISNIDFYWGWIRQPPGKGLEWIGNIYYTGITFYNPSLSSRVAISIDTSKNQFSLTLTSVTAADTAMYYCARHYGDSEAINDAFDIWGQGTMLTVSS VL: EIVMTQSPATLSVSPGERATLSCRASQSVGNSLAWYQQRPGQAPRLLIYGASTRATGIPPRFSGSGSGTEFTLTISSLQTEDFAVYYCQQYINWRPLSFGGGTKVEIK ?
19700

Similarly, TCN-528 (5087_P17) (antibody, V domains shown) VH: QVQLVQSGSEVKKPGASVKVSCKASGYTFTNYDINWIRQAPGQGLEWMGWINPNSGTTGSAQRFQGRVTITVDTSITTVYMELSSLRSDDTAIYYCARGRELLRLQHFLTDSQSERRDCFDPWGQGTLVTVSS VL: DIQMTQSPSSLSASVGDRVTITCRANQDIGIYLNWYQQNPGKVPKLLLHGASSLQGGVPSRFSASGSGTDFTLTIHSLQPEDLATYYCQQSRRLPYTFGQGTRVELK ?
39700

Similarly, TCN-523 (5248_A17) (antibody, V domains shown) VH: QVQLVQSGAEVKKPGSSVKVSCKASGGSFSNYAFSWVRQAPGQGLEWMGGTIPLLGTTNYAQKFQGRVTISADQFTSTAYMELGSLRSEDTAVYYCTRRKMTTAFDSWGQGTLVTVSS VL: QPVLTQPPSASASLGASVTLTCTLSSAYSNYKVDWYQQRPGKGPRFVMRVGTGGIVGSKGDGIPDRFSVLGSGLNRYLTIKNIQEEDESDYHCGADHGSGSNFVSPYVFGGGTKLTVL ?
24500
